The following compounds have recorded MIC on Bacillus subtilis PCI219.
Supply the numeric figure in µg/mL, leaving out any unit text.

Reference set, count: 2
* CN[C@@H]1[C@@H](O)[C@@H](O[C@H]2[C@H](NC(=O)[C@@H](O)CCN)C[C@H](N)[C@@H](O[C@H]3O[C@H]([C@@H](C)N)CC[C@H]3N)C2(F)F)OC[C@]1(C)O [5FF-Genta-C2-AHB] | 0.2
* NC[C@H]1O[C@H](O[C@H]2[C@H](O)[C@@H](O[C@H]3O[C@H](CO)[C@@H](O)[C@H](N)[C@H]3O)[C@H](N)C[C@@H]2N)[C@H](O)[C@@H](O)[C@@H]1O [KMA, kanamycin A, reference compound] | 0.78

Please look at the following compound next.
(Q) Given the entry NCC[C@H](O)C(=O)N[C@@H]1C[C@H](N)[C@@H](O[C@H]2O[C@H](CN)[C@@H](O)[C@H](O)[C@H]2O)C(F)(F)[C@H]1O[C@H]1O[C@H](CO)[C@@H](O)[C@H](N)[C@H]1O [Compound 5FF-amikacin] , what MIC was observed with Bacillus subtilis PCI219?
(A) 1.56

====

The following molecules have recorded MIC on Serratia marcescens.

Reference set, count: 2
* NCC[C@H](O)C(=O)N[C@@H]1C[C@H](N)[C@@H](O[C@H]2O[C@H](CN)[C@@H](O)[C@H](O)[C@H]2O)C(F)(F)[C@H]1O[C@H]1O[C@H](CO)[C@@H](O)[C@H](N)[C@H]1O [Compound 5FF-amikacin] | 6.25 µg/mL
* CCN[C@@H]1C[C@H](N)[C@@H](O[C@H]2OC(CN)=CC[C@H]2N)C(F)(F)[C@H]1O[C@H]1OC[C@](C)(O)[C@H](NC)[C@H]1O [5FF-Netilmicin, 5-deoxy-5,5-difluoronetilmicin] | 6.25 µg/mL

(Q) Given the entry CCN[C@@H]1C[C@H](N)[C@@H](O[C@H]2OC(CN)=CC[C@H]2N)[C@H](O)[C@H]1O[C@H]1OC[C@](C)(O)[C@H](NC)[C@H]1O [Netilmicin, netilmicin, reference compound] , what MIC was observed with Serratia marcescens?
(A) 6.25 µg/mL

(Q) Given the entry CN[C@@H]1[C@@H](O)[C@@H](O[C@@H]2[C@@H](O)[C@H](O[C@H]3O[C@H]([C@@H](C)N)CC[C@H]3N)[C@@H](N)C[C@H]2N)OC[C@]1(C)O [Genta-C2, gentamicin C2, reference compound] , what MIC was observed with Serratia marcescens?
(A) 0.78 µg/mL

====

Measured MIC by item
Tested on: Escherichia coli K-12 ML 1629
method_summary: microbe, parasite or virus in culture
Type: cell-based
conditions_used: K12ML1629; Escherichia coli K-12 ML 1629; resistance mechanism APH(3')-I; Mueller-Hinton agar, 37° C; read-out: MIC

Reference set, count: 2
- NC[C@H]1O[C@H](O[C@@H]2[C@@H](N)C[C@@H](N)[C@H](O[C@H]3O[C@H](CO)[C@@H](O)[C@H](N)[C@H]3O)C2(F)F)[C@H](O)[C@@H](O)[C@@H]1O: > 100 µg/mL
- NC[C@H]1O[C@H](O[C@@H]2[C@@H](N)C[C@@H](N)[C@H](O[C@H]3O[C@H](CO)[C@@H](O)[C@H](N)[C@H]3O)C2(F)F)[C@H](N)[C@@H](O)[C@@H]1O: > 100 µg/mL

Please look at the following compound next.
(Q) Endpoint output: MIC of NC[C@H]1O[C@H](O[C@H]2[C@H](O)[C@@H](O[C@H]3O[C@H](CO)[C@@H](O)[C@H](N)[C@H]3O)[C@H](N)C[C@@H]2N)[C@H](O)[C@@H](O)[C@@H]1O [KMA, kanamycin A, reference compound] . Value?
(A) > 100 µg/mL

Hey, just so you know, these numbers are from patent US5527781A.
